Values from PubChem BioAssay (Tox21)

assay: qHTS assay to identify small molecule antagonists of the retinoid-related orphan receptor gamma (ROR-gamma) signaling pathway - cell viability counter screen (AID 1159520); conditions: Tet-on RORgamma CHO cells viability, ATP luminescence, 16 h; series mostly up to 92.4 µM; note: nearly all actives have a fitted effect of over 50% in size
Inconclusive results are not listed. Active and inactive are the calls of the source. Calls come from the whole dose curve; as a rule, active = well fitted cell-killing curve with a large enough effect in the repeat runs; inconclusive = weak or mixed curves, or effect the other way; inactive = no such curve, though single readings can be large or run the other way.
Write down one outcome, taken from 1 (yes) (active), 0 (no) (inactive)

## Task Just curious, what result did OCCN1CCN(CC/C=C2/c3ccccc3Sc3ccc(C(F)(F)F)cc32)CC1 get here?
## Result 1 (yes)

## Task For CCCC(=O)OC[C@@H](OC(=O)CCC)[C@@H](OC(=O)CCC)[C@H](Cn1c2nc(=O)[nH]c(=O)c-2nc2cc(C)c(C)cc21)OC(=O)CCC , which call appears in the assay record?
## Result 0 (no)

## Task Which outcome was assigned to CNc1ccc(O)cc1 in this test?
## Result 1 (yes)

## Task Returns: the outcome recorded for CCC(CN)=C(c1ccccc1)c1ccccc1 in this assay.
## Result 0 (no)

## Task Lab log entry: CCc1oc2ccccc2c1C(=O)c1cc(Br)c(O)c(Br)c1 — outcome as called in the assay?
## Result 0 (no)

## Task What did this assay record as the result for COc1ccc(-c2ccc3cc(C(=O)O)ccc3c2)cc1C12CC3CC(CC(C3)C1)C2 ?
## Result 1 (yes)

## Task Look up the recorded call for CC(C)(C)C(=O)OCOC(=O)C1N2C(=O)CC2S(=O)(=O)C1(C)C (stereo not given) in this test.
## Result 0 (no)

## Task Please share the test call associated with CCCCCCCCn1sc(Cl)c(Cl)c1=O .
## Result 1 (yes)

## Task What outcome does the record of this test show for COc1cccc2c1C(=O)c1c(O)c3c(c(O)c1C2=O)C[C@@](O)(C(=O)CO)C[C@@H]3O[C@H]1C[C@H](N)[C@H](O[C@@H]2CCCCO2)[C@H](C)O1 ?
## Result 1 (yes)

## Task What did this assay record as the result for CC(C)n1nc(-c2cc3cc(O)ccc3[nH]2)c2c(N)ncnc21 ?
## Result 1 (yes)

----------
molecular target: Cytochrome P450 2C19 (Homo sapiens) (UniProt P33261); assay: Cytochrome P450 Family 2 Subfamily C Member 19 (CYP2C19) small molecule antagonists: luciferase reporter qHTS assay (AID 1671197); conditions: P450-Glo CYP2C19 enzyme, luciferin luminescence, 1 h; series mostly up to 52.9 µM; note: nearly all actives have a fitted effect of over 65% in size
Sequence (P33261 whole entry, looked up): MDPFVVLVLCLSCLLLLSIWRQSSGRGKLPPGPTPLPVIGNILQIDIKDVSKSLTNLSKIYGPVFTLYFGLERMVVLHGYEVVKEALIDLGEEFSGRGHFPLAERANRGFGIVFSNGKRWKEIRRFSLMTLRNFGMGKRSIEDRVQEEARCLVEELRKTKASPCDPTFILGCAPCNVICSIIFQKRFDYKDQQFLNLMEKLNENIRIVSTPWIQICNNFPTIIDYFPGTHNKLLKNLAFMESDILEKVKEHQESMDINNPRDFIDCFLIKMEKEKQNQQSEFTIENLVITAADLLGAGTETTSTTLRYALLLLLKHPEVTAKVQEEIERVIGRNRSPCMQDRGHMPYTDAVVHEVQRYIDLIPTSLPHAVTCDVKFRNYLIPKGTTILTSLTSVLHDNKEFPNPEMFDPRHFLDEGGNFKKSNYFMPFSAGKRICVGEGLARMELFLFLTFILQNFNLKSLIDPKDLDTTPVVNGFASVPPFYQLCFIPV
Inconclusive results are not listed. The source made the active and inactive calls. The call rests on the fitted dose curve; in most records, active means well fitted inhibition curve with a large enough effect in the repeat runs; inconclusive means weak or mixed curves; inactive means no such curve, though single readings can be large or run the other way.
The categories you may choose from are T for active, F for inactive

## Task // param item: C[n+]1cc2c3c(ccc2c2ccc4cc5c(cc4c21)OCO5)OCO3 ; yields the recorded call
## Result T

## Task Test call, this molecule: O=C(OCC(COC(=O)c1ccccc1)(COC(=O)c1ccccc1)COC(=O)c1ccccc1)c1ccccc1
## Result T

## Task Called result for S=c1[nH]c2ccccc2s1
## Result T

## Task Which result was noted for this molecule in the test: O=Cc1cc(O)ccc1Br
## Result T

## Task Which result was noted for this molecule in the test: NNc1nc(-c2ccc(N)cc2)cs1
## Result T

## Task Outcome? CCCCCCC[N+](CC)(CC)CCCCc1ccc(Cl)cc1
## Result F

## Task Can you look up the reported call for Cc1cc(O)c(Cl)c(C)c1Cl for me?
## Result T

## Task # lookup: test call for N=C1C=CC(=C(c2ccc(N)cc2)c2ccc(N)cc2)C=C1
## Result T

## Task # lookup: test call for CCCCC(CC)CN=C(N)NC(N)=NCCCCCCN=C(N)NC(N)=NCC(CC)CCCC (stereo not given)
## Result T

## Task Assay outcome for N=C1N=C(N)c2cc3ccccc3cc21 : what was it?
## Result T

## Task Hey, what did the test say about CCCCCCCCCCn1cc[n+](CCCCCCCCCC)c1C ?
## Result T

## Task Test call, this molecule: CNCc1cc(F)ccc1Oc1ccc(Cl)c(Cl)c1
## Result T

## Task What did this assay record as the result for CC1=C(/C=C/C(C)=C/C=C/C(C)=C/C=O)C(C)(C)CCC1 ?
## Result T

## Task Test call, this molecule: O=C(OCC1CO1)C1CCCCC1C(=O)OCC1CO1 (stereo not given)
## Result T

## Task Name the outcome recorded for CCCCCOC(=O)CCCC in the assay.
## Result F

## Task Hi, sorry to bother you, what did the test record for CC(=O)SC[C@@H](Cc1ccccc1)C(=O)NCC(=O)OCc1ccccc1 ?
## Result T

## Task Check the results log: what was the call for COc1ccc(C(=O)/C(Br)=C\C(=O)O)cc1 ?
## Result T

## Task // outcome(item) with item = Oc1cccc(-c2c3nc(c(-c4cccc(O)c4)c4ccc([nH]4)c(-c4cccc(O)c4)c4nc(c(-c5cccc(O)c5)c5ccc2[nH]5)CC4)C=C3)c1
## Result T

## Task Test call, this molecule: Cc1cc(O)c2ccccc2c1O
## Result T

## Task Write down the call the test reported for this molecule. Item: CC[C@@]1(O)C(=O)OCc2c1cc1n(c2=O)Cc2c-1nc1ccccc1c2/C=N/OC(C)(C)C
## Result F

## Task Hey, what did the test say about Nc1ccccc1O ?
## Result T

## Task Hi, do you know how C=CC(=O)OCCn1c(=O)n(CCOC(=O)C=C)c(=O)n(CCOC(=O)C=C)c1=O came out in this test?
## Result T

## Task Give the logged outcome of this assay for the following molecule: CCCCCCCC/C=C\CCCCCCCCOCCO
## Result T

## Task For this molecule, state the assay outcome: CCCCCCCCCCCCCCCCCC[N+](C)(C)Cc1ccccc1
## Result T

## Task State the result this test recorded for Cc1[nH]cnc1C[C@H]1CCc2c(C)c3ccccc3n2C1=O .
## Result T
